Assay: BET inhibitor-based combinations targeting novel dependencies in MECOM-rearranged (r) AML: UCSD-AML1 cell line (AID 2202235); further: nearly all actives have a fitted effect of over 40% in size
Conditions: UCSD-AML1 AML cells viability, CellTiter-Glo, 48 h; series mostly up to 46 µM
Protocol: Ecotropic viral insertion site 1 (EVI1) is located on chromosome 3q26.2 as part of the MECOM (MDS and EVI1 complex) locus. […] A collection of 2480 mechanistically annotated dugs (MIPE v5.0) was used to screen four 3q26.2 rearranged AML cell lines and three non-3q26.2 rearranged AML cell lines. […] Cell viability was determined by luminescence based, Cell Titer Glo assay (Promega). […] Luminescence readings were taken using a Viewlux (PerkinElmer) with a 2 s exposure time per plate. […]
Results filed as inconclusive are left out. Active and inactive are the calls of the source. The call rests on the fitted dose curve; in most records, active means well fitted inhibition curve with a large enough effect; inconclusive means small, poorly fitted or top-dose-only effect; inactive means no such curve, though single readings can be large or run the other way.
Lab note: assign the record to one of true (active), false (inactive)

- O=c1c(-c2ccc(O)cc2)coc2cc(O)ccc12: false

IN: Recorded test call requested for CC1=C(C)C(=O)C(C(CCCCCC(=O)O)c2ccccc2)=C(C)C1=O (centres undefined)
OUT: false

IN: What was the test verdict on CCOC(=O)c1ccc(OC(=O)CCCCCN=C(N)N)cc1 ?
OUT: false

IN: # outcome recorded in this test, key = COc1ccc(-c2nc3ccc(C4=NNC(=O)CC4C)cc3[nH]2)cc1 (centres undefined)
OUT: true
